# tgt: PI3K (p110α/p85α) (Homo sapiens (Human), UniProt P42336)
# Sequence (P42336 whole entry, species assumed): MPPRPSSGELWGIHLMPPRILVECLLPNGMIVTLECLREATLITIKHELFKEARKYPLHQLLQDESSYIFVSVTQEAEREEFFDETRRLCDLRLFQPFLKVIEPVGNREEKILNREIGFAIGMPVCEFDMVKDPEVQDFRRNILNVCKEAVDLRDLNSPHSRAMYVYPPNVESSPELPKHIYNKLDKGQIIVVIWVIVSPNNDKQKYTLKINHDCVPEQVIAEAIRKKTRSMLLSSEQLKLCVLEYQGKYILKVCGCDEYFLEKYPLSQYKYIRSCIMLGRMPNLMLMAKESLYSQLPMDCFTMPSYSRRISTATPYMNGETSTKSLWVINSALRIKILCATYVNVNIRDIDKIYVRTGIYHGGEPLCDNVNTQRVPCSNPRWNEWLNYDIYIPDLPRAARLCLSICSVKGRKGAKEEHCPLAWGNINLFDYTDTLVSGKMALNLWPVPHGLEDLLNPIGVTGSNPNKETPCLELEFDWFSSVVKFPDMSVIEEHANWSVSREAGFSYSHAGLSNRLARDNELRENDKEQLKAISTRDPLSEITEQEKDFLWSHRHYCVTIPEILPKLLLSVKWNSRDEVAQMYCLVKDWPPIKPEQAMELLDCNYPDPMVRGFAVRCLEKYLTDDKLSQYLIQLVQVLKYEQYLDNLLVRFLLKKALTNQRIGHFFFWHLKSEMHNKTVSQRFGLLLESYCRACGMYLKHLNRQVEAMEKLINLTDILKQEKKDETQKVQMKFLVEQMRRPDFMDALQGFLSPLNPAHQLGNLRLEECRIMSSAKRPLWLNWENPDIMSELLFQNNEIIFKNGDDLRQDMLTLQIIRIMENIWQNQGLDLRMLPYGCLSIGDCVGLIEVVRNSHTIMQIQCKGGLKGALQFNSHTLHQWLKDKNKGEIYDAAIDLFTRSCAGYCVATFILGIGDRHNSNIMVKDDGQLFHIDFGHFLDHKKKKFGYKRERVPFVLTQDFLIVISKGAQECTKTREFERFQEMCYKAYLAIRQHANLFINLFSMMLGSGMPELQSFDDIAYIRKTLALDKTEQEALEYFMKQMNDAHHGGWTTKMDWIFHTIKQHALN
# Sequence (P27986 whole entry partner, species assumed): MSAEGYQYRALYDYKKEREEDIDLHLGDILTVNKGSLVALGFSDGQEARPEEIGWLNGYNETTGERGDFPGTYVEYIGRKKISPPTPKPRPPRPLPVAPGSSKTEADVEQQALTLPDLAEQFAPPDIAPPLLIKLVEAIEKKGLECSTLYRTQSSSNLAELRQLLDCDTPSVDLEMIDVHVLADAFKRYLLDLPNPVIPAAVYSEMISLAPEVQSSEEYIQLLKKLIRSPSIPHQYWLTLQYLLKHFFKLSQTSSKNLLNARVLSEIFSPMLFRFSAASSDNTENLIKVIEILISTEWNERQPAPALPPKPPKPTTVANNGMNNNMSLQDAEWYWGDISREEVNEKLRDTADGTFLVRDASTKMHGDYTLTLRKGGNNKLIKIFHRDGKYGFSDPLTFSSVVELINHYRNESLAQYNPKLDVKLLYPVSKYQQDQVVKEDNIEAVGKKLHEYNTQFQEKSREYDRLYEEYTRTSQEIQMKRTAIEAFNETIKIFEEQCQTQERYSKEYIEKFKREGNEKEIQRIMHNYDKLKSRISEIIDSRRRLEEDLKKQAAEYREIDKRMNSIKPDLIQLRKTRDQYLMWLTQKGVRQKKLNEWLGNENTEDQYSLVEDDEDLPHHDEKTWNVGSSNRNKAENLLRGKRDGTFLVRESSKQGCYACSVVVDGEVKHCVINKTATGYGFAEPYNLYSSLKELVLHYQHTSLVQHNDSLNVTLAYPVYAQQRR
# method: PI3K HTRF enzyme assay, p110α/p85α
# Assay type: biochemical
# test-settings: read-out: % inhibition @ 500 nM p110α; compound at 500 nM, 10 μM ATP
test-readout: inhibition at 0.5 µM (%)

INSERT INTO assay_data (molecule, tgt, measurement_units, val) VALUES
  ('CCOC(=O)c1nc(-c2ccc(NC(=O)Nc3ccc(NC(C)=O)cc3)cc2)nc(N2CCOCC2)c1OCC [MTR-0370]', 'PI3K (p110α/p85α) (Homo sapiens (Human), UniProt P42336)', '%', 61.8),
  ('CSc1cnc(-c2ccc(NC(=O)Nc3ccc(S(C)(=O)=O)cc3)cc2)nc1N1CCOCC1 [MTR-0404]', 'PI3K (p110α/p85α) (Homo sapiens (Human), UniProt P42336)', '%', 66.9),
  ('CCOc1cnc(-c2ccc(NC(=O)Nc3ccc(NC(C)=O)nc3)cc2)nc1N1CCOCC1 [MTR-0442]', 'PI3K (p110α/p85α) (Homo sapiens (Human), UniProt P42336)', '%', 79.1),
  ('C[S+]([O-])c1cnc(-c2ccc(NC(=O)Nc3ccc(N4CCOCC4=O)cc3)cc2)nc1N1CCOCC1 (stereo not shown) [MTR-0401]', 'PI3K (p110α/p85α) (Homo sapiens (Human), UniProt P42336)', '%', 41.7);

----------
# Test system: PC-3 cells
# method: Antiproliferation assay (MTS), PC-3
# Type: cell-based
# test-settings: Homo sapiens, PC3, 72 hours of drug treatment
pIC50: −log10 of the molar value.
test-readout: pIC50

INSERT INTO results (molecule, val) VALUES
  ('CCOc1c(C(=O)N2CCOCC2)nc(-c2ccc(NC(=O)Nc3ccc(N4CCOCC4=O)cc3)cc2)nc1N1CCOCC1 [MTR-0280]', 6.90),
  ('CCOc1cnc(-c2ccc(NC(=O)Nc3ccc(N4CCOCC4=O)cc3)cc2)nc1-c1ccncc1 [MTR-0398]', 6.75),
  ('CSc1cnc(-c2ccc(NC(=O)Nc3cccc(NC(C)=O)c3)cc2)nc1N1CCOCC1 [MTR-0377]', 6.69),
  ('COc1cnc(-c2ccc(NC(=O)Nc3ccc(N)cc3)cc2)nc1N1CCOCC1 [MTR-0350]', 6.73),
  ('CCOc1c(C(=O)N2CCN(S(C)(=O)=O)CC2)nc(-c2ccc(NC(=O)Nc3ccccc3)cc2)nc1N1CCOCC1 [MTR-0145]', 6.36);

----------
The entries below come with measured inhibition at 10 µM values attached.
# tgt: recombinant mTOR (Homo sapiens (Human), UniProt P42345)
# Sequence (P42345 1360-2549): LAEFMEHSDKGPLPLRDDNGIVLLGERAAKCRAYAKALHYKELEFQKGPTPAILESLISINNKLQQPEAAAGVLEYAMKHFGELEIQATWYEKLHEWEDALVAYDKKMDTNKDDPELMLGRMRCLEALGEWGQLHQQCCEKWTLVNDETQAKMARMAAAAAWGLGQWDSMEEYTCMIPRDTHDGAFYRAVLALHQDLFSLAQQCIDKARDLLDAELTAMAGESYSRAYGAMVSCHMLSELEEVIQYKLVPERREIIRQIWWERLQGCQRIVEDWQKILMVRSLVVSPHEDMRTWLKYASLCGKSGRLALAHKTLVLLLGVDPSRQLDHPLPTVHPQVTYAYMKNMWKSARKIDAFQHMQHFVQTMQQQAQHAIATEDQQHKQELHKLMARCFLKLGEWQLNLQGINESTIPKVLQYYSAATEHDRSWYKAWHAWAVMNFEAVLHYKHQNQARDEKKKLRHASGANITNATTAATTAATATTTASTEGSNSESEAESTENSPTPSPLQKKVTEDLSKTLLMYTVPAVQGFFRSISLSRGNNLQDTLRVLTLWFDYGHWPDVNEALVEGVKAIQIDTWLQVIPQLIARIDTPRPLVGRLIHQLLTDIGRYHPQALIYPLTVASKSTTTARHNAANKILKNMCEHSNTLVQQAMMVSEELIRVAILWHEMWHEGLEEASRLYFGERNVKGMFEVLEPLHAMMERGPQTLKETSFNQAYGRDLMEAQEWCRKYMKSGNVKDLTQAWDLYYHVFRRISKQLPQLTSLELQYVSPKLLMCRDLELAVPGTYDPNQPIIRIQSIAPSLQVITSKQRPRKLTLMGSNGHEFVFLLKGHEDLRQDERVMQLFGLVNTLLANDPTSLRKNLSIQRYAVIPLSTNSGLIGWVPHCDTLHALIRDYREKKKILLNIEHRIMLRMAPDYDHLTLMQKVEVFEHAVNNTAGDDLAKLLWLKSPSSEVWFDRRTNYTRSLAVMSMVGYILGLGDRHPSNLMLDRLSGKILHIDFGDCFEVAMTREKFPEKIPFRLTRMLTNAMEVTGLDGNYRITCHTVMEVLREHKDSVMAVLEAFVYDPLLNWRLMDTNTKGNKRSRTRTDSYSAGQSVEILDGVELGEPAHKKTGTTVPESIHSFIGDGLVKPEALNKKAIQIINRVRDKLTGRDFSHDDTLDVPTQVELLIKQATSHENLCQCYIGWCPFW
# method: mTOR kinase assay (33P incorporation into 4EBP1)
# Format: biochemical
# test-settings: compound at 10 μM, 10 μM ATP
test-readout: inhibition at 10 µM (%)

INSERT INTO measurements (molecule, val) VALUES
  ('COc1cnc(-c2ccc(NC(=O)Nc3ccc(Br)nc3)cc2)nc1N1CCOCC1 [MTR-0352]', 94),
  ('CCOC(=O)c1nc(-c2cccc(O)c2)nc(N2CCOCC2)c1OCC [MTR-0037]', 98),
  ('CSc1c(Cl)nc(-c2cnc(N)nc2)nc1N1CCOCC1 [MTR-0373]', 81),
  ('CCOc1c(C(=O)O)nc(-c2ccc(NC(=O)Nc3ccccc3)cc2)nc1N1CCOCC1 [MTR-0118]', 94),
  ('CSc1c(Cl)nc(-c2ccc(NC(=O)NCCN3CCOCC3)cc2)nc1N1CCOCC1 [MTR-0198]', 87);
